Entries annotated with measured EC50
target: Gwt1 (Saccharomyces cerevisiae, UniProt P47026); construct: Wildtype S. cerevisiae BY4741; endogenous in cells; host or cells: S. cerevisiae BY4741 (wild type); assay: Antifungal susceptibility testing, screening strains with plasmid-borne GWT1 (low or high copy); type: cell-based, S. cerevisiae; details: EC50 High Copy GWT1, Screening strains, high copy GWT1 plasmid
Sequence (P47026 whole entry): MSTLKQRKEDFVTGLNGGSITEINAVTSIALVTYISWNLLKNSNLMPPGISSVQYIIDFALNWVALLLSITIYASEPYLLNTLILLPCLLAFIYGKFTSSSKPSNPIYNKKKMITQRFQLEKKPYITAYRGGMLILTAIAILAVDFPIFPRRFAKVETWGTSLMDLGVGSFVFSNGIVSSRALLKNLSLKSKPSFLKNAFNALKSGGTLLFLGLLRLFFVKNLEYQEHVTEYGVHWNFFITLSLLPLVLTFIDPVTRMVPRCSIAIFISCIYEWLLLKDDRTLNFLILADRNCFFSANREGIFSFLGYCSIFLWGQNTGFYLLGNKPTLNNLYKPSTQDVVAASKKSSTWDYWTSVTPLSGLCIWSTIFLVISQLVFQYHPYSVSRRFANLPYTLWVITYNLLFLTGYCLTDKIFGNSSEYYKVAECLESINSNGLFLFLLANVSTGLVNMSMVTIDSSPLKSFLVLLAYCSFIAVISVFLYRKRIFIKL
Output spec: scalar in µM, unitless text.

Compound	EC50, µM
CC(C)COc1cccc(OCC(=O)Nc2ccc(F)cc2)c1 [CM2]	3.07
COc1ccc(NC(=O)C(C)Oc2cccc(OCC(C)C)c2)cc1 (centres unmarked) [MAZ1855]	93.1
COc1ccc(NC(=O)COc2cccc(OCCC(C)C)c2)cc1 [CM7]	6.2
COc1ccc(NC(=O)COc2cccc(OCc3ccccc3)c2)cc1 [MAZ1857]	268

Provide the documented EC50 with Gwt1 (Saccharomyces cerevisiae, UniProt P47026) as the system for COc1ccc(NC(=O)COc2cccc(Oc3ccccn3)c2)cc1 [MAZ1859]
7.2

This collection of values is drawn from patent US9505735B2.
